# Test system: Escherichia coli TOP10
# Protocol text: shrunken log2 fold change of peptide-encoding DNA abundance (4.5 h post-induction vs induction); higher = less antimicrobial activity (less host growth inhibition)
# Measurement context: time post-induction: 4.5 h; library: site-saturation at positions 5, 18, 19, 20
Observation type: shrunken log2 fold change

Use these answered entries as a reference point.
Entry sequence	shrunken log2 fold change
RRIRTRPPRLPRPRPRPAELPRP	0.112
RRIRFRPPRLPRPRPRPWYDPRP	0.13
RRIRKRPPRLPRPRPRPLTTPRP	0.539
RRIRSRPPRLPRPRPRPGMWPRP	0.0949
RRIRPRPPRLPRPRPRPNDWPRP	0.0287

Please report shrunken log2 fold change for every entry that follows.
1. RRIRKRPPRLPRPRPRPVGCPRP
2. RRIRRRPPRLPRPRPRPAIKPRP
3. RRIRTRPPRLPRPRPRPNTVPRP
4. RRIRRRPPRLPRPRPRPAPVPRP
5. RRIRVRPPRLPRPRPRPVTNPRP

0.266
0.304
-0.305
1.06
-0.68

Each sequence below has a reported value. Please supply its shrunken log2 fold change.
1. RRIRARPPRLPRPRPRPRDTPRP
2. RRIRARPPRLPRPRPRPGFHPRP
3. RRIRNRPPRLPRPRPRPKDNPRP
4. RRIRKRPPRLPRPRPRPWYDPRP
5. RRIRTRPPRLPRPRPRPYRPPRP

0.673
0.245
-0.484
-0.153
-0.2

* * *

# Tested on: Escherichia coli TOP10
# Protocol text: shrunken log2 fold change of peptide-encoding DNA abundance (4.5 h post-induction vs induction); higher = less antimicrobial activity (less host growth inhibition)
# Measurement context: time post-induction: 4.5 h; library: site-saturation at positions 5, 18, 19, 20
Hi there, I'd appreciate the recorded shrunken log2 fold change for every entry that follows.

Entry sequence	Observation type	Test result
RRIRGRPPRLPRPRPRPDVAPRP	shrunken log2 fold change	1.98
RRIRCRPPRLPRPRPRPWCQPRP	shrunken log2 fold change	-0.32

For each of the sequences below, state shrunken log2 fold change.
1. RRIRQRPPRLPRPRPRPEAFPRP
2. RRIRCRPPRLPRPRPRPAFHPRP
3. RRIRKRPPRLPRPRPRPMITPRP
4. RRIRTRPPRLPRPRPRPRSRPRP
5. RRIRCRPPRLPRPRPRPWCSPRP

[0.127, -0.389, -0.278, 0.143, -0.321]

For the 8 sequences below, give their shrunken log2 fold change values.
1. RRIRIRPPRLPRPRPRPTSFPRP
2. RRIRLRPPRLPRPRPRPHKAPRP
3. RRIRMRPPRLPRPRPRPLYRPRP
4. RRIRVRPPRLPRPRPRPAMIPRP
5. RRIRCRPPRLPRPRPRPSGAPRP
6. RRIRERPPRLPRPRPRPVAMPRP
7. RRIRVRPPRLPRPRPRPQLLPRP
8. RRIRGRPPRLPRPRPRPLIMPRP

1: -0.11; 2: -0.0451; 3: -0.0998; 4: -0.07; 5: 0.176; 6: -0.00351; 7: -0.0606; 8: 0.206

* * *

# System: Escherichia coli TOP10;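 note: peptides expressed intracellularly from a pBAD plasmid library in pooled LB shake-flask culture, induced with 0.3% L-arabinose, DNA abundance read by NGS, three biological replicates, DESeq2 with apeglm shrinkage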
# Protocol text: shrunken log2 fold change of peptide-encoding DNA abundance (4.5 h post-induction vs induction); higher = less antimicrobial activity (less host growth inhibition)
# Measurement context: time post-induction: 4.5 h; library: site-saturation at positions 5, 18, 19, 20
Tag: criterion met if measured shrunken log2 fold change is not below 0.01, criterion not met if it is.

For orientation, consider the following solved cases.
Entry sequence	Class label
RRIRGRPPRLPRPRPRPFGGPRP	criterion met
RRIRYRPPRLPRPRPRPSKWPRP	criterion not met
RRIRRRPPRLPRPRPRPCPMPRP	criterion not met

Exam item: decide whether the reported shrunken log2 fold change for RRIRHRPPRLPRPRPRPPVAPRP is at least 0.01.
criterion met

Please check the record RRIRPRPPRLPRPRPRPLPYPRP and state if its shrunken log2 fold change is at or above 0.01.
criterion not met

Please tell me: is the sequence RRIRTRPPRLPRPRPRPESCPRP at or over 0.01 in terms of shrunken log2 fold change?
criterion met
